Hi there, I'd appreciate the recorded IP for every entry that follows.
system: UniProt:P25103
Sequence (P25103 whole entry): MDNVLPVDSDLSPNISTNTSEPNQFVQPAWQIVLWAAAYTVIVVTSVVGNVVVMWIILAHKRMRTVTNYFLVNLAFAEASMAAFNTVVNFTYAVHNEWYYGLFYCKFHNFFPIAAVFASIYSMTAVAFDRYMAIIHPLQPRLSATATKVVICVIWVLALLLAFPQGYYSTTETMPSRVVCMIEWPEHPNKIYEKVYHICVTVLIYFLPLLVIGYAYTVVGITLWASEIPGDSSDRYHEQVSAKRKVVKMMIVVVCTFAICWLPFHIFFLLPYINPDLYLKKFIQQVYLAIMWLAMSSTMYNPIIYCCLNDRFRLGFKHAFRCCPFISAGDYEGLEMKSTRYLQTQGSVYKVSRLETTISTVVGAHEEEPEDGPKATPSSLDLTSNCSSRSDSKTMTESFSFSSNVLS
measurement_protocol: Antagonist activity at human NK1 receptor assessed as substance P-stimulated inositol phosphate generation at 100 nM
Format: functional
Just the number please, in %, no unit attached.

Request: Given the molecule C[C@@H](O[C@H]1CN2C(=O)C=C(C3=CCOCC3)CC2[C@@H]1c1ccc(F)cc1)c1cc(C(F)(F)F)cc(C(F)(F)F)c1 (stereo partly drawn) , what is its reported IP?
Result: 14

Request: Given the molecule COc1cc(C2=CC(=O)N3C[C@H](O[C@H](C)c4cc(C(F)(F)F)cc(C(F)(F)F)c4)[C@@H](c4ccc(F)cc4)C3C2)ccn1 (stereo partly drawn) , what is its reported IP?
Result: 5

Request: Given the molecule C[C@@H](O[C@H]1CN2C(=O)C=C(c3ccnc(F)c3)CC2[C@@H]1c1ccc(F)cc1)c1cc(C(F)(F)F)cc(C(F)(F)F)c1 (stereo partly drawn) , what is its reported IP?
Result: 7

Request: Given the molecule C[C@@H](O[C@H]1CN2C(=O)C=C(c3cnn(C)c3)CC2[C@@H]1c1ccc(F)cc1)c1cc(C(F)(F)F)cc(C(F)(F)F)c1 (stereo partly drawn) , what is its reported IP?
Result: 14

Request: Given the molecule C[C@@H](O[C@H]1CN2C(=O)C=C(C3CCOCC3)CC2[C@@H]1c1ccc(F)cc1)c1cc(C(F)(F)F)cc(C(F)(F)F)c1 (stereo partly drawn) , what is its reported IP?
Result: 3

Request: Given the molecule C[C@@H](O[C@H]1CN2C(=O)C=C(c3cnn(Cc4ccccc4)c3)CC2[C@@H]1c1ccc(F)cc1)c1cc(C(F)(F)F)cc(C(F)(F)F)c1 (stereo partly drawn) , what is its reported IP?
Result: 3

Request: Given the molecule C[C@@H](O[C@H]1CN2C(=O)C=C(c3ccc(C#N)cc3)CC2[C@@H]1c1ccc(F)cc1)c1cc(C(F)(F)F)cc(C(F)(F)F)c1 (stereo partly drawn) , what is its reported IP?
Result: 3

Request: Given the molecule C[C@@H](O[C@H]1CN2C(=O)C=C(c3ccccc3)CC2[C@@H]1c1ccc(F)cc1)c1cc(C(F)(F)F)cc(C(F)(F)F)c1 (stereo partly drawn) , what is its reported IP?
Result: 17

Request: Given the molecule C[C@@H](O[C@H]1CN2C(=O)C=C(N3CCC(O)CC3)CC2[C@@H]1c1ccc(F)cc1)c1cc(C(F)(F)F)cc(C(F)(F)F)c1 (stereo partly drawn) , what is its reported IP?
Result: 4

Request: Given the molecule C[C@@H](O[C@H]1CN2C(=O)C=C(c3cc[nH]c(=O)c3)CC2[C@@H]1c1ccc(F)cc1)c1cc(C(F)(F)F)cc(C(F)(F)F)c1 (stereo partly drawn) , what is its reported IP?
Result: 17

Request: Given the molecule C[C@@H](O[C@H]1CN2C(=O)C=C(C3CCN(C(C)(C)C)CC3)CC2[C@@H]1c1ccc(F)cc1)c1cc(C(F)(F)F)cc(C(F)(F)F)c1 (stereo partly drawn) , what is its reported IP?
Result: 4

Request: Given the molecule C[C@@H](O[C@H]1CN2C(=O)C=C(C3=CCC(O)CC3)CC2[C@@H]1c1ccc(F)cc1)c1cc(C(F)(F)F)cc(C(F)(F)F)c1 (stereo partly drawn) , what is its reported IP?
Result: 8

Request: Given the molecule C[C@@H](O[C@H]1CN2C(=O)C=C(C3=CCN(C(C)(C)C)CC3)CC2[C@@H]1c1ccc(F)cc1)c1cc(C(F)(F)F)cc(C(F)(F)F)c1 (stereo partly drawn) , what is its reported IP?
Result: 2
